- System: NCI-H1793
- assay.method.text: relative viability (nuclei count vs DMSO), 5 days (fraction); higher = more cells survive
- applied.conditions: first compound 0.03162 µM
Parameter relative viability: see the listing below.

Here is how some compounds turned out for relative viability.
compound: CC(C)Oc1cc(Nc2nc(N[C@@H](C)c3ccc(F)cn3)ncc2Cl)n[nH]1 [AZ23] + CS(=O)(=O)N1CCN(Cc2cc3nc(-c4cccc5[nH]ncc45)nc(N4CCOCC4)c3s2)CC1 [Pictilisib] (partner 1 µM)
target.or.system: NCI-H1793
relative viability: 0.369
//
compound: CC(C)Oc1cc(Nc2nc(N[C@@H](C)c3ccc(F)cn3)ncc2Cl)n[nH]1 [AZ23] + C[C@]1(O)C[C@@H](c2nc(-c3ccc4ccc(-c5ccccc5)nc4c3)c3c(N)nccn32)C1 [Linsitinib] (partner 1 µM)
target.or.system: NCI-H1793
relative viability: 0.983
//
compound: CC(C)Oc1cc(Nc2nc(N[C@@H](C)c3ccc(F)cn3)ncc2Cl)n[nH]1 [AZ23] + N=C(N)NC(=N)NCCc1ccccc1 [Phenformin] (partner 250 µM)
target.or.system: NCI-H1793
relative viability: 0.439

Kindly review the next compound as well.
So, CC(C)Oc1cc(Nc2nc(N[C@@H](C)c3ccc(F)cn3)ncc2Cl)n[nH]1 [AZ23] + COc1cccc2cc(-c3nc([C@H]4CC[C@H](C(=O)O)CC4)n4ncnc(N)c34)[nH]c12 [OSI-027] (partner 0.5 µM) ? Its relative viability was 0.303

###

- System: NCI-H2342
- assay.method.text: relative viability (nuclei count vs DMSO), 5 days (fraction); higher = more cells survive
- applied.conditions: first compound 4 µM
Please use 1.0 for relative viability under 0.6 and 0.0 for everything else, ties included.

Some solved entries appear below for comparison.
compound: COc1cc(N2CCC(C(N)=O)CC2)ccc1Nc1nc(N)c(Cl)c(Nc2ccccc2S(=O)(=O)C(C)C)n1 [HG-5-88-01] + COc1cccc2cc(-c3nc([C@H]4CC[C@H](C(=O)O)CC4)n4ncnc(N)c34)[nH]c12 [OSI-027] (partner 0.5 µM)
answer.label: 1.0
--
compound: C[C@@H]1CN(CC(=O)Nc2ccc3c(c2)Cc2cccc(-c4cc(=O)cc(N5CCOCC5)o4)c2S3)C[C@H](C)O1 + Cc1cc(Nc2cc(N3CCN(C)CC3)nc(Sc3ccc(NC(=O)C4CC4)cc3)n2)n[nH]1 [Tozasertib] (partner 0.1 µM)
answer.label: 1.0
--
compound: C[C@@H]1CN(CC(=O)Nc2ccc3c(c2)Cc2cccc(-c4cc(=O)cc(N5CCOCC5)o4)c2S3)C[C@H](C)O1 + CC(=O)c1c(C)c2cnc(Nc3ccc(N4CCNCC4)cn3)nc2n(C2CCCC2)c1=O [Palbociclib] (partner 0.5 µM)
answer.label: 1.0
--
compound: C[C@@H]1CN(CC(=O)Nc2ccc3c(c2)Cc2cccc(-c4cc(=O)cc(N5CCOCC5)o4)c2S3)C[C@H](C)O1 + O=C(c1cc(Cc2n[nH]c(=O)c3ccccc23)ccc1F)N1CCN(C(=O)C2CC2)CC1 [Olaparib] (partner 8 µM)
answer.label: 1.0
--
compound: COc1cc(N2CCC(C(N)=O)CC2)ccc1Nc1nc(N)c(Cl)c(Nc2ccccc2S(=O)(=O)C(C)C)n1 [HG-5-88-01] + Nc1nc2[nH]cc(CCc3ccc(C(=O)N[C@@H](CCC(=O)O)C(=O)O)cc3)c2c(=O)[nH]1 [Pemetrexed] (partner 0.2 µM)
answer.label: 0.0

Note: attention shifts to another entry.
Task item: Record COc1cc(N2CCC(C(N)=O)CC2)ccc1Nc1nc(N)c(Cl)c(Nc2ccccc2S(=O)(=O)C(C)C)n1 [HG-5-88-01] + CC(=O)Nc1cccc(-n2c(=O)n(C3CC3)c(=O)c3c(Nc4ccc(I)cc4F)n(C)c(=O)c(C)c32)c1 [Trametinib] (partner 0.02 µM) : is its relative viability strictly below 0.6?
Reply: 0.0
